- Tested System: SARS-CoV-2 N LKR+CTD (SARS-CoV-2, UniProt P0DTC9 183-365)
- Measurement Notes: BLI; value order as in text ('respectively'); BLI (Octet RED96e, SSA sensors, biotinylated RNA immobilised): PBS, 0.02% Tween 20, 25 C; pH not stated; 1:1 kinetic fit
- Run Parameters: protein: recombinant; tags: 6xHis-SUMO tag removed by Ulp1; chain copies: 2; label: 5' biotin
Measured Attribute: Kd (µM)
# output: bare number, implied unit µM

Ask: Item ACGAAC (ssRNA) [TRS-1 (RNA1)] has what recorded Kd?
Reply: 14
